Values were extracted from ChEMBL document CHEMBL2434952.

System: Bacillus cereus
Assay explanation: Antibacterial activity against Bacillus cereus assessed as growth inhibition measured after 24 to 48 hrs by agar disk diffusion method
Assay type: functional
Kindly state inhibition zone (IZ) for each of the entries shown.

Exercise: Requested read-out: inhibition zone (IZ). Entry: "N#Cc1c(-c2ccccc2)cn(-c2n[nH]c(=S)s2)c1N"
Solution: 20 mm

Exercise: Requested read-out: inhibition zone (IZ). Entry: "O=C(Nc1ccccc1)Sc1nnc(N(C(=O)Nc2ccccc2)C(=O)Nc2ccccc2)s1"
Solution: 7 mm

Exercise: Requested read-out: inhibition zone (IZ). Entry: "O=C(CNc1n[nH]c(=S)s1)c1ccccc1"
Solution: 18 mm

Exercise: Requested read-out: inhibition zone (IZ). Entry: "NS(=O)(=O)c1ccc(NC(=S)Nc2n[nH]c(=S)s2)cc1"
Solution: 7 mm

Exercise: Requested read-out: inhibition zone (IZ). Entry: "O=C(Nc1ccccc1)Nc1nnc(S)s1"
Solution: 7 mm

Exercise: Requested read-out: inhibition zone (IZ). Entry: "S=c1[nH]nc(/N=C/c2ccccc2Cl)s1"
Solution: 22 mm

Exercise: Requested read-out: inhibition zone (IZ). Entry: "O=CN(C=O)c1n[nH]c(=S)s1"
Solution: 22 mm

Exercise: Requested read-out: inhibition zone (IZ). Entry: "CC(=O)N(C(C)=O)c1n[nH]c(=S)s1"
Solution: 20 mm

Exercise: Requested read-out: inhibition zone (IZ). Entry: "O=C1CSC(Nc2n[nH]c(=S)s2)=N1"
Solution: 9 mm

* * *

Kindly state inhibition zone (IZ) for each of the entries shown.
Test system: Bacillus cereus
Assay explanation: Antibacterial activity against Bacillus cereus assessed as growth inhibition measured after 24 to 48 hrs by agar disk diffusion method in absence of 24.4 Gy gamma-irradiation
Format: functional
Report as a plain number; the unit mm is understood.

Exercise: Requested read-out: inhibition zone (IZ). Entry: "N#Cc1c(-c2ccccc2)cn(-c2n[nH]c(=S)s2)c1N"
Solution: 25

Exercise: Requested read-out: inhibition zone (IZ). Entry: "CC(=O)N(C(C)=O)c1n[nH]c(=S)s1"
Solution: 11

Exercise: Requested read-out: inhibition zone (IZ). Entry: "O=CN(C=O)c1n[nH]c(=S)s1"
Solution: 13

Exercise: Requested read-out: inhibition zone (IZ). Entry: "O=C(CNc1n[nH]c(=S)s1)c1ccccc1"
Solution: 15

Exercise: Requested read-out: inhibition zone (IZ). Entry: "S=c1[nH]nc(/N=C/c2ccccc2Cl)s1"
Solution: 20

Exercise: Requested read-out: inhibition zone (IZ). Entry: "O=C(Nc1ccccc1)Sc1nnc(N(C(=O)Nc2ccccc2)C(=O)Nc2ccccc2)s1"
Solution: 7

Exercise: Requested read-out: inhibition zone (IZ). Entry: "O=C1CSC(Nc2n[nH]c(=S)s2)=N1"
Solution: 11

Exercise: Requested read-out: inhibition zone (IZ). Entry: "O=C(Nc1ccccc1)Nc1nnc(S)s1"
Solution: 7

Exercise: Requested read-out: inhibition zone (IZ). Entry: "NS(=O)(=O)c1ccc(NC(=S)Nc2n[nH]c(=S)s2)cc1"
Solution: 7

* * *

Kindly state inhibition zone (IZ) for each of the entries shown.
System: Staphylococcus aureus
Assay explanation: Antibacterial activity against Staphylococcus aureus assessed as growth inhibition measured after 24 to 48 hrs by agar disk diffusion method
Assay type: functional

Exercise: Requested read-out: inhibition zone (IZ). Entry: "O=C1CSC(Nc2n[nH]c(=S)s2)=N1"
Solution: 10 mm

Exercise: Requested read-out: inhibition zone (IZ). Entry: "O=C(CNc1n[nH]c(=S)s1)c1ccccc1"
Solution: 20 mm

Exercise: Requested read-out: inhibition zone (IZ). Entry: "O=CN(C=O)c1n[nH]c(=S)s1"
Solution: 20 mm

Exercise: Requested read-out: inhibition zone (IZ). Entry: "S=c1[nH]nc(/N=C/c2ccccc2Cl)s1"
Solution: 20 mm

Exercise: Requested read-out: inhibition zone (IZ). Entry: "O=C(Nc1ccccc1)Nc1nnc(S)s1"
Solution: 10 mm

Exercise: Requested read-out: inhibition zone (IZ). Entry: "NS(=O)(=O)c1ccc(NC(=S)Nc2n[nH]c(=S)s2)cc1"
Solution: 9 mm

Exercise: Requested read-out: inhibition zone (IZ). Entry: "N#Cc1c(-c2ccccc2)cn(-c2n[nH]c(=S)s2)c1N"
Solution: 25 mm

Exercise: Requested read-out: inhibition zone (IZ). Entry: "CC(=O)N(C(C)=O)c1n[nH]c(=S)s1"
Solution: 20 mm

Exercise: Requested read-out: inhibition zone (IZ). Entry: "O=C(Nc1ccccc1)Sc1nnc(N(C(=O)Nc2ccccc2)C(=O)Nc2ccccc2)s1"
Solution: 15 mm

* * *

Kindly state inhibition zone (IZ) for each of the entries shown.
Tested on: Bacillus cereus
Assay explanation: Antibacterial activity against Bacillus cereus assessed as growth inhibition measured after 24 to 48 hrs by agar disk diffusion method in presence of 24.4 Gy gamma-irradiation
Assay type: functional
Report as a plain number; the unit mm is understood.

Exercise: Requested read-out: inhibition zone (IZ). Entry: "O=C(CNc1n[nH]c(=S)s1)c1ccccc1"
Solution: 15

Exercise: Requested read-out: inhibition zone (IZ). Entry: "CC(=O)N(C(C)=O)c1n[nH]c(=S)s1"
Solution: 20

Exercise: Requested read-out: inhibition zone (IZ). Entry: "S=c1[nH]nc(/N=C/c2ccccc2Cl)s1"
Solution: 16

* * *

Kindly state inhibition zone (IZ) for each of the entries shown.
Tested on: Staphylococcus aureus
Assay explanation: Antibacterial activity against Staphylococcus aureus assessed as growth inhibition measured after 24 to 48 hrs by agar disk diffusion method in presence of 24.4 Gy gamma-irradiation
Format: functional
Report as a plain number; the unit mm is understood.

Exercise: Requested read-out: inhibition zone (IZ). Entry: "NS(=O)(=O)c1ccc(NC(=S)Nc2n[nH]c(=S)s2)cc1"
Solution: 10

Exercise: Requested read-out: inhibition zone (IZ). Entry: "O=C(Nc1ccccc1)Sc1nnc(N(C(=O)Nc2ccccc2)C(=O)Nc2ccccc2)s1"
Solution: 7

Exercise: Requested read-out: inhibition zone (IZ). Entry: "O=C(CNc1n[nH]c(=S)s1)c1ccccc1"
Solution: 20

Exercise: Requested read-out: inhibition zone (IZ). Entry: "O=CN(C=O)c1n[nH]c(=S)s1"
Solution: 16

Exercise: Requested read-out: inhibition zone (IZ). Entry: "O=C(Nc1ccccc1)Nc1nnc(S)s1"
Solution: 10

Exercise: Requested read-out: inhibition zone (IZ). Entry: "CC(=O)N(C(C)=O)c1n[nH]c(=S)s1"
Solution: 17

Exercise: Requested read-out: inhibition zone (IZ). Entry: "N#Cc1c(-c2ccccc2)cn(-c2n[nH]c(=S)s2)c1N"
Solution: 19

Exercise: Requested read-out: inhibition zone (IZ). Entry: "O=C1CSC(Nc2n[nH]c(=S)s2)=N1"
Solution: 15

Exercise: Requested read-out: inhibition zone (IZ). Entry: "S=c1[nH]nc(/N=C/c2ccccc2Cl)s1"
Solution: 16

* * *

Tested on: Bacillus cereus
Assay explanation: Antibacterial activity against Bacillus cereus assessed as growth inhibition measured after 24 to 48 hrs by agar disk diffusion method in presence of 24.4 Gy gamma-irradiation
Type: functional
Test readout: inhibition zone (IZ) (mm)
Report as a plain number; the unit mm is understood.

Exercise: Requested read-out: inhibition zone (IZ). Entry: "NS(=O)(=O)c1ccc(NC(=S)Nc2n[nH]c(=S)s2)cc1"
Solution: 10

Exercise: Requested read-out: inhibition zone (IZ). Entry: "O=C(Nc1ccccc1)Sc1nnc(N(C(=O)Nc2ccccc2)C(=O)Nc2ccccc2)s1"
Solution: 9

Exercise: Requested read-out: inhibition zone (IZ). Entry: "O=C(Nc1ccccc1)Nc1nnc(S)s1"
Solution: 9

Exercise: Requested read-out: inhibition zone (IZ). Entry: "O=C1CSC(Nc2n[nH]c(=S)s2)=N1"
Solution: 11

Exercise: Requested read-out: inhibition zone (IZ). Entry: "O=CN(C=O)c1n[nH]c(=S)s1"
Solution: 20

Exercise: Requested read-out: inhibition zone (IZ). Entry: "N#Cc1c(-c2ccccc2)cn(-c2n[nH]c(=S)s2)c1N"
Solution: 25
